target-entity: DNA topoisomerase II (Homo sapiens, UniProt P11388+Q02880)
method-description: Inhibition of topoisomerase 2 in human MDA-MB-231 cells assessed as reduction in cell growth measured after 72 hrs by MTT assay
Format: cell-based
measured-property: IC50 (µM)

O=C1c2ccccc2C(=O)c2c(O)c(C(O)c3ccc(Br)s3)cc(O)c21 (stereo not drawn); 43.9
O=C1c2ccccc2C(=O)c2c(O)c(C(O)c3ccc(Cl)cc3Cl)cc(O)c21 (stereo not drawn); 34.6

* * *

target-entity: DNA topoisomerase II (Homo sapiens, UniProt P11388+Q02880)
method-description: Inhibition of topoisomerase 2 in human MDA-MB-231 cells assessed as reduction in cell growth measured after 72 hrs by MTT assay
Format: cell-based
measured-property: IC50 (µM)

O=C1c2ccccc2C(=O)c2c(O)c(C(O)c3cc(Br)cs3)cc(O)c21 (stereo not given); 33.3
O=C1c2ccccc2C(=O)c2c(O)c(C(O)c3ccc(C(F)(F)F)cc3)cc(O)c21 (stereo not given); 38.1
